biological target: T1, human ACVR2A (human, UniProt P27037 20-135, limits assumed); experiment: ELISA; note: test concentration or dose not given here
T1 construct: also called activin receptor, type II A
T1 sequence (P27037 20-135 limits assumed): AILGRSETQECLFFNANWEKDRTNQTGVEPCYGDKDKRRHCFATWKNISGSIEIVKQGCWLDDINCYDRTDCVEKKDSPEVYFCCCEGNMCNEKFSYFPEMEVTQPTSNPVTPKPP
# optical density per record follows
Report only the number, with the unit OD understood.

Provide measured optical density value, entry: 374_B11 (antibody, V domains shown, VH and VL only) VH: EVQLLESGGGLVQPGGSLRLSCAASGFTFSSYSMNWVRQAPGKGLEWVSGINYNSGYKSYADSVKGRFTISRDNSKNTLYLQMNSLRAEDTAVYYCARSATWHDTHLDYWGQGTLVTVSS VL: DIQMTQSPSSLSASVGDRVTITCRASQSILTYVNWYQQKPGKAPKLVIYAATSRASGVPSRFSGSGSGTDFTLTISSLQPEDFATYYCQQSYDLPLTFGGGTKVEIK
3.69

Provide measured optical density value, entry: 369_F04 (antibody, V domains shown, VH and VL only) VH: EVQLLESGGGLVQPGGSLRLSCAASGFTFSSYGMNWVRQAPGKGLEWVSGINYNGGYTSYADSVKGRFTISRDNSKNTLYLQMNSLRAEDTAVYYCARSATWHDTHLDYWGQGTLVTVSS VL: DIQMTQSPSSLSASVGDRVTITCRASQSIISYVNWYQQKPGKAPKLLIYAATSRHSGVPSRFSGSGSGTDFTLTISSLQPEDFATYYCQQSYDNPLTFGGGTKVEIK
1.95

Provide measured optical density value, entry: 376_E09 (antibody, V domains shown, VH and VL only) VH: EVQLLESGGGLVQPGGSLRLSCAASGFTFDSYSMNWVRQAPGKGLEWVSGINYNSGYKSYADSVKGRFTISRDNSKNTLYLQMNSLRAEDTAVYYCARSATWHDTHLDYWGQGTLVTVSS VL: DIQMTQSPSSLSASVGDRVTITCRASQSILTYLNWYQQKPGKAPKLLIYAATSRHSGVPSRFSGSGSGTDFTLTISSLQPEDFATYYCQQSYDTPLTFGGGTKVEIK
3.74

The origin of these recorded values is patent US20210380703A1.
